Hey, just so you know, these numbers are from ChEMBL document CHEMBL1201862.

Quick reference: AbsAC35 of the listed items.
# Assay remarks: CFTR-F508del correctors, dose response, FRT cells, YFP quenching, cherry-pick (AID 743402)
# Format: functional, cell-based
Among all 1,200 compounds or so, about 140 (12%) were called active. This is one part of a sample in which actives are shown more often than they occur.

In the examples that follow, each entry is paired with its recorded AbsAC35.
> print(dat)
                                   compound  observable    value.reported
1  COc1ccc(C2=Nn3c(nnc3-c3ccccc3OC)SC2)cc1OC1CCOC1 (configuration not stated)     AbsAC35   160 µM (active)
2  CCc1ccc(OCCNc2cc(N3CCNC(C)C3)ccc2[N+](=O)[O-])cc1 (configuration not stated)     AbsAC35  58.8 µM (active)
3         O=c1c(O)c(-c2cccs2)oc2ccc(Cl)cc12     AbsAC35  30.3 µM (active)

With those in mind, consider the next compound.
*Q* Give its AbsAC35 value. Item: `O=C(OCc1ccc(Br)cc1)c1cc([N+](=O)[O-])ccc1N1CCOCC1`
*A* 28.4 µM (active)

---

# Assay remarks: CFTR-F508del correctors, dose response, FRT cells, YFP quenching, cherry-pick (AID 743402)
# Assay type: functional, cell-based
In all, about 1,200 compounds went through this assay and about 140 (12%) were called active. Only a selection was taken, and actives are over-represented in it overall.
Observable: AbsAC35

In the examples that follow, each entry is paired with its recorded AbsAC35.
> print(dat)
                                   molecule    value.reported
1  COc1ccc(C2C3=C(COC3=O)Oc3cc4c(cc32)OCO4)cc1OC (stereo not drawn)   116 µM (active)
2  CC(=O)Nc1ccc(S(=O)(=O)N2c3ccccc3C(C)=CC2(C)C)cc1  42.7 µM (active)

*Q* Give its AbsAC35 value. Item: COc1ccc(NC(=O)C(=O)NCC2CCCN2S(=O)(=O)c2cccs2)cc1 (stereo not drawn)
*A* 87.6 µM (active)
